tested.system: hTHEM4 (Homo sapiens)
Sequence (Q5T1C6 37-240): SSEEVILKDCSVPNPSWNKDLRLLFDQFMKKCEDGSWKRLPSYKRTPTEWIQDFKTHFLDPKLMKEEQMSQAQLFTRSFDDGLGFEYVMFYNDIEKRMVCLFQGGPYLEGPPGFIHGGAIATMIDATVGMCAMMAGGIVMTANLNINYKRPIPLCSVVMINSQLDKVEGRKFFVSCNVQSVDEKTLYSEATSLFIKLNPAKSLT
outcome.measure: Ki (µM)
The response must be a number in µM with no trailing unit.

Give the measured Ki of "CC(C)(COP(=O)(O)OP(=O)(O)OC[C@H]1O[C@@H](n2cnc3c(N)ncnc32)[C@H](O)[C@@H]1OP(=O)(O)O)[C@@H](O)C(=O)NCCC(=O)NCCS" . 81
